Every entry's value here was drawn from patent US9938261B2.

target: CSF1R (Homo sapiens); assay: HEK293 CSF1R phosphorylation MSD assay; type: cell-based; design: expressed in transfected cells; host or cells: HEK293; details: HEK293 cells, M-CSF stimulated CSF1R phosphorylation, MSD; read-out: HEK293 pCSF1R M-CSF MSD:IC50
Sequence (P07333 20-972): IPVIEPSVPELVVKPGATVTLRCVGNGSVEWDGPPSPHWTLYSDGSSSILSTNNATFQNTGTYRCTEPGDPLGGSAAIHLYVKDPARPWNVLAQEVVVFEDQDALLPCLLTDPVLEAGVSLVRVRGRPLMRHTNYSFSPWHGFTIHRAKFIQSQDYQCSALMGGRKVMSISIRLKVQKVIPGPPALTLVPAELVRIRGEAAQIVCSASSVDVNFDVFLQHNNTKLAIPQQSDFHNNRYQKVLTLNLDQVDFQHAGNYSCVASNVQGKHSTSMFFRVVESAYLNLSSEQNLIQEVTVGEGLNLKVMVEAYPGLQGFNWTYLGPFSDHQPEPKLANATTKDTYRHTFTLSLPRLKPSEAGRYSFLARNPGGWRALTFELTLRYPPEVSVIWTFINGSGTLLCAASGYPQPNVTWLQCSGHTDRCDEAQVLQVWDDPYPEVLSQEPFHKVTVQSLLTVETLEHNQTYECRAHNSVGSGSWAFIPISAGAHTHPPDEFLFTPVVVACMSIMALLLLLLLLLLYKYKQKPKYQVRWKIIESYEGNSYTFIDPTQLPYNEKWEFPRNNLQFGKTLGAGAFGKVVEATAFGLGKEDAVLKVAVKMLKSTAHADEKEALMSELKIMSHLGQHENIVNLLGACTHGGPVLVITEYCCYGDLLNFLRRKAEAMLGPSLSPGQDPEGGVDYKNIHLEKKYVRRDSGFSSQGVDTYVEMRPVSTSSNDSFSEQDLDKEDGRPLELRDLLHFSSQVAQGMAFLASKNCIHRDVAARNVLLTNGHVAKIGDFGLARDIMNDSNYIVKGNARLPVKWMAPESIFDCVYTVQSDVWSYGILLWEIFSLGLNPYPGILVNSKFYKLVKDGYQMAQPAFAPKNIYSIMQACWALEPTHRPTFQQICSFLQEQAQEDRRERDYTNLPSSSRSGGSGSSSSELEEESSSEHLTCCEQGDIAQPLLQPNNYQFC
pIC50: −log10 of the molar value.
readout-name: pIC50

Give pIC50 for each listed item.
1. Cc1cc(C)c2c(c1)ncn2Cc1ccc2nc(N[C@@H]3CCCC[C@H]3O)sc2c1
2. C#Cc1ccc2c(c1)ncn2Cc1ccc2nc(N[C@@H]3CCCC[C@H]3O)sc2c1
3. O[C@@H]1[C@H](O)CCC[C@H]1Nc1nc2ccc(Cn3cnc4cc(-n5cncn5)cnc43)cc2s1
4. COc1nc2c(cc1Br)ncn2Cc1ccc2nc(N[C@@H]3CCCC[C@H]3O)sc2c1
5. CNC(=O)c1ccc2ncc(Cc3ccc4nc(N[C@@H]5CCCC[C@H]5O)sc4c3)n2n1
6. Cn1nnnc1-c1cnc2c(c1)ncn2Cc1ccc2nc(N[C@@H]3CCCC[C@H]3O)sc2c1
7. O[C@@H]1CCCC[C@H]1Nc1nc2ccc(Cc3cnc4cc(-n5ccnn5)ccn34)cc2s1

6.30 to 6.70
6.70 to 7.30
6.70 to 7.30
6.70 to 7.30
6.30 to 6.70
≥ 7.30
≥ 7.30

* * *

target: KIT (Homo sapiens, UniProt P10721); construct: made in house; test: Competition binding assay, KIT Kd; conditions: competition binding
Sequence (P10721 26-976): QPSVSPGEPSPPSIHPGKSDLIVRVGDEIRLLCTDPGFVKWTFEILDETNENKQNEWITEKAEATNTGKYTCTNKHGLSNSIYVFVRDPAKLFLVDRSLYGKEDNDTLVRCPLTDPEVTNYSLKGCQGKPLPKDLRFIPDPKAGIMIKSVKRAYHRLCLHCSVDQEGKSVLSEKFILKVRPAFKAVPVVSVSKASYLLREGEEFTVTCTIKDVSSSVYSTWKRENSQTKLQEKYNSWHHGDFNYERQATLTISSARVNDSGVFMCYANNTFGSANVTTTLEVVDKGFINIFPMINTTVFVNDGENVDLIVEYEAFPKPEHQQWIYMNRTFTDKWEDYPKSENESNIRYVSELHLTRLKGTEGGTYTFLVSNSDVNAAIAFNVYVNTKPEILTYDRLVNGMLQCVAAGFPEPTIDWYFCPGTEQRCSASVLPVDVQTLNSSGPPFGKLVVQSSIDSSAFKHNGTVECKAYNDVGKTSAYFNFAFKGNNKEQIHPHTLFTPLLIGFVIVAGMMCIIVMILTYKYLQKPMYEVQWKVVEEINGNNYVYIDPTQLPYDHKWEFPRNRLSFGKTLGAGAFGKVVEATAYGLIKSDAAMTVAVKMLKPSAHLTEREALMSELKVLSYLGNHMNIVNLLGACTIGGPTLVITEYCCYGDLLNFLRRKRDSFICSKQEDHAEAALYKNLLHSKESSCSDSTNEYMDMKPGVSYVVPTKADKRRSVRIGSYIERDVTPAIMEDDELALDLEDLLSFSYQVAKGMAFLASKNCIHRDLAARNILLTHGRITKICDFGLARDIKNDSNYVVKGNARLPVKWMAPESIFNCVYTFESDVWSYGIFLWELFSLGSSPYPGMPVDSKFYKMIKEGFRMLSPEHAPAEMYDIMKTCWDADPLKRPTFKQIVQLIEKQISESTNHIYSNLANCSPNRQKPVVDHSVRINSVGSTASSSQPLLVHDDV
pKd: −log10 of the molar value. Structures can show the parent of a compound that is named as a salt.
Field: pKd. Provide a value for each of the compounds that follow.

Please give pKd for each item listed below.
1. O[C@@H]1CCCC[C@H]1Nc1nc2ccc(Cn3cnc4cc(-c5cc[nH]n5)ccc43)cc2s1
2. C#Cc1ccc2c(c1)ncn2Cc1ccc2nc(N[C@@H]3CCCC[C@H]3O)sc2c1
3. O[C@@H]1CCCC[C@H]1Nc1nc2ccc(Cn3cnc4cc(Cl)c(Cl)nc43)cc2s1
4. O[C@@H]1CCCC[C@H]1Nc1nc2ccc(Cc3cnc4ccc(Cl)nn34)cc2s1
5. Nc1nccn(Cc2ccc3nc(N[C@@H]4CCCC[C@H]4O)sc3c2)c1=O [Example 220, acetate salt]
6. CCOc1ccc2c(c1)ncn2Cc1ccc2nc(N[C@@H]3CCCC[C@H]3O)sc2c1
7. N#CCOc1ccc2c(c1)ncn2Cc1ccc2nc(N[C@@H]3CCCC[C@H]3O)sc2c1
8. Cn1nnnc1-c1cnc2c(c1)ncn2Cc1ccc2nc(N[C@@H]3CCCC[C@H]3O)sc2c1

1: ≥ 7.00; 2: 6.30 to 7.00; 3: ≥ 7.00; 4: ≥ 7.00; 5: < 5.70; 6: ≥ 7.00; 7: 6.30 to 7.00; 8: 6.30 to 7.00

Take each entry in turn and give its pKd.
1. O[C@@H]1CCCC[C@H]1Nc1nc2ccc(Cc3cnc4sccn34)cc2s1
2. O[C@@H]1CCCC[C@H]1Nc1nc2ccc(Cc3cnc4cccnn34)cc2o1
3. OC[C@@H]1CCC[C@@H](Nc2nc3ccc(Cn4cnc5cc(F)cnc54)cc3s2)C1
4. N#Cc1cc2ncn(Cc3ccc4nc(N[C@@H]5CCCC[C@H]5O)oc4c3)c2cc1Cl

1: < 5.70; 2: ≥ 7.00; 3: 6.30 to 7.00; 4: 5.70 to 6.30

Batch: pKd for all items listed.
1. C=Cc1ccn2c(Cc3ccc4nc(N[C@@H]5CCCC[C@H]5O)sc4c3)cnc2c1
2. O[C@@H]1CCCC[C@H]1Nc1nc2ccc(Cn3cnc4cnc(C(F)(F)F)nc43)cc2s1

1: 5.70 to 6.30; 2: 5.70 to 6.30

Give pKd for each listed item.
1. O[C@H]1CC[C@H](Nc2nc3ccc(Cn4cnc5cc(F)cnc54)cc3s2)CC1
2. N#Cc1ccc2ncc(Cc3ccc4nc(N[C@@H]5CCCC[C@H]5O)sc4c3)n2n1

6.30 to 7.00
≥ 7.00

* * *

Exercise: state measured Kd for each of the compounds provided.
target: KIT (Homo sapiens, UniProt P10721); construct: made in house; assay: Competition binding assay, KIT Kd

- Nc1nc2cccnc2n1Cc1ccc2nc(N[C@@H]3CCCC[C@H]3O)sc2c1 [Example 26, acetic acid]: > 2000 nM
- COc1cc2ncn(Cc3ccc4nc(N[C@@H]5c6ccccc6C[C@H]5O)sc4c3)c2cc1OC [Example 19]: 100 to 500 nM
- O=C(O)c1cnc2c(c1)ncn2Cc1ccc2nc(N[C@@H]3CCCC[C@H]3O)sc2c1 [Example 81]: 100 to 500 nM
- COc1cc2c(cc1C#N)ncn2Cc1ccc2nc(N[C@@H]3CCCC[C@H]3O)sc2c1 [Example 65]: 500 to 2000 nM
- OC[C@@H]1CCCC[C@H]1Nc1nc2ccc(Cn3cnc4cccnc43)cc2s1 [Example 66]: 500 to 2000 nM
- O[C@@H]1CCCC[C@H]1Nc1nc2ccc(Cn3cnc4ncccc43)cc2s1 [Example 5]: > 2000 nM
- COc1ccccc1Nc1nc2ccc(Cn3cnc4cc(OC)c(OC)cc43)cc2s1 [Example 30]: ≤ 100 nM
- O[C@@H]1Cc2ccccc2[C@H]1Nc1nc2ccc(Cn3cnc4cc(Br)cnc43)cc2s1 [Example 42]: ≤ 100 nM
- O[C@@H]1CCCC[C@H]1Nc1nc2ccc(Cn3cnc4ccncc43)cc2s1 [Example 71]: > 2000 nM
- O[C@@H]1Cc2ccccc2[C@H]1Nc1nc2ccc(Cn3cnc4cc(Br)cnc43)cc2o1 [Example 62]: ≤ 100 nM

Hello, I would appreciate it if you could give Kd for each entry below.
1. O[C@@H]1CCCC[C@H]1Nc1nc2ccc(Cn3cnc4cncnc43)cc2s1 [Example 48]
2. Cn1cc(-c2cn(Cc3ccc4nc(N[C@@H]5CCCC[C@H]5O)oc4c3)cn2)cn1 [Example 77]
3. COc1cc2ncn(Cc3ccc4nc(NCc5ccccn5)sc4c3)c2cc1OC [Example 9]
4. COc1cc2ncn(Cc3ccc4nc(N(C)C5CCCCC5)sc4c3)c2cc1OC [Example 16]
5. O[C@@H]1CCCC[C@H]1Nc1nc2ccc(Cn3cnc4cc(N5CCOCC5)cnc43)cc2s1 [Example 97]

1: 500 to 2000 nM; 2: 500 to 2000 nM; 3: 500 to 2000 nM; 4: 100 to 500 nM; 5: ≤ 100 nM

* * *

target: KIT (Homo sapiens, UniProt P10721); construct: made in house; test: Competition binding assay, KIT Kd; conditions: competition binding
readout-name: Kd

Example results:
- COCCOc1ccn2c(Cc3ccc4nc(N[C@@H]5CCCC[C@H]5O)sc4c3)cnc2c1: 500 to 2000 nM
- O[C@@H]1CCCC[C@H]1Nc1nc2ccc(Cn3cnc4cc(-n5cccn5)ccc43)cc2s1: ≤ 100 nM
- O[C@@H]1CCCC[C@H]1Nc1nc2ccc(Cc3cnc4cc(-n5cccn5)ccn34)cc2s1: 100 to 500 nM
- CC(C)(O)C#Cc1cnc2c(c1)ncn2Cc1ccc2nc(N[C@@H]3CCCC[C@H]3O)sc2c1: ≤ 100 nM

What value of Kd on KIT (Homo sapiens, UniProt P10721) does OC[C@@H]1CCCC[C@H]1Nc1nc2ccc(Cn3cnc4cc(Br)cnc43)cc2s1 have?
100 to 500 nM

* * *

target: kinase panel containing either 386 or 392 distinct kinases; assay: Kinase selectivity score S10 from competition binding panel; conditions: 10 μM, panel of 386 or 392 distinct kinases
Counter-ions that a name gives are not always drawn.
readout-name: Kinase specificity S(10)

Answered examples (8):
* N#CCOc1ccc2c(c1)ncn2Cc1ccc2nc(N[C@@H]3CCCC[C@H]3O)sc2c1 | A (A≤0.01)
* O=C1CCCCN1c1ccc2c(c1)ncn2Cc1ccc2nc(N[C@@H]3CCCC[C@H]3O)sc2c1 | A (A≤0.01)
* O[C@@H]1[C@H](O)CCC[C@H]1Nc1nc2ccc(Cn3cnc4cc(N5CCOCC5)ccc43)cc2s1 | A (A≤0.01)
* O[C@@H]1CCCC[C@H]1Nc1nc2ccc(Cn3cnc4cc(Cl)c(Cl)nc43)cc2s1 | A (A≤0.01)
* CNC(=O)c1ccc2ncc(Cc3ccc4nc(N[C@@H]5CCCC[C@H]5O)sc4c3)n2n1 | B (0.01<B≤0.02)
* O[C@@H]1CCCC[C@H]1Nc1nc2ccc(Cn3cnc4cc(N5CCOCC5)ccc43)cc2s1 | A (A≤0.01)
* O[C@@H]1CCCC[C@H]1Nc1nc2ccc(Cn3cnc4cc(C(F)(F)F)ccc43)cc2s1 | A (A≤0.01)
* C=Cc1ccc2c(c1)ncn2Cc1ccc2nc(N[C@@H]3CCC[C@@H](O)[C@H]3O)sc2c1 | A (A≤0.01)

Count: 7. Required value per item: Kinase specificity S(10).
1. C#Cc1ccc2ncn(Cc3ccc4nc(N[C@@H]5CCCC[C@H]5O)sc4c3)c2c1
2. O[C@@H]1CCCC[C@H]1Nc1nc2ccc(Cc3cnc4cccc(F)n34)cc2s1
3. O[C@@H]1CCCC[C@H]1Nc1nc2ccc(Cc3cnc4sccn34)cc2s1
4. O[C@@H]1CCCC[C@H]1Nc1nc2ccc(Cn3cnc4cccnc43)c(F)c2s1
5. O[C@@H]1CCCC[C@H]1Nc1nc2ccc(Cn3cnc4ccc(Br)cc43)cc2s1
6. COc1nc2c(cc1C#N)ncn2Cc1ccc2nc(N[C@@H]3CCCC[C@H]3O)sc2c1
7. Nc1nccn(Cc2ccc3nc(N[C@@H]4CCCC[C@H]4O)sc3c2)c1=O [Example 220, acetate salt]

1. A (A≤0.01)
2. B (0.01<B≤0.02)
3. A (A≤0.01)
4. A (A≤0.01)
5. B (0.01<B≤0.02)
6. A (A≤0.01)
7. A (A≤0.01)
